meta.source: patent US20250215029A1

Provide the reported IC50 of each item.
Molecular target: pY641-STAT6 in PBMC (Homo sapiens, UniProt P42226)
Construct: Cryopreserved Peripheral Blood Mononuclear Cells (PBMC) are from AllCells; host or cells: cryopreserved PBMC
Sequence (P42226 1-847): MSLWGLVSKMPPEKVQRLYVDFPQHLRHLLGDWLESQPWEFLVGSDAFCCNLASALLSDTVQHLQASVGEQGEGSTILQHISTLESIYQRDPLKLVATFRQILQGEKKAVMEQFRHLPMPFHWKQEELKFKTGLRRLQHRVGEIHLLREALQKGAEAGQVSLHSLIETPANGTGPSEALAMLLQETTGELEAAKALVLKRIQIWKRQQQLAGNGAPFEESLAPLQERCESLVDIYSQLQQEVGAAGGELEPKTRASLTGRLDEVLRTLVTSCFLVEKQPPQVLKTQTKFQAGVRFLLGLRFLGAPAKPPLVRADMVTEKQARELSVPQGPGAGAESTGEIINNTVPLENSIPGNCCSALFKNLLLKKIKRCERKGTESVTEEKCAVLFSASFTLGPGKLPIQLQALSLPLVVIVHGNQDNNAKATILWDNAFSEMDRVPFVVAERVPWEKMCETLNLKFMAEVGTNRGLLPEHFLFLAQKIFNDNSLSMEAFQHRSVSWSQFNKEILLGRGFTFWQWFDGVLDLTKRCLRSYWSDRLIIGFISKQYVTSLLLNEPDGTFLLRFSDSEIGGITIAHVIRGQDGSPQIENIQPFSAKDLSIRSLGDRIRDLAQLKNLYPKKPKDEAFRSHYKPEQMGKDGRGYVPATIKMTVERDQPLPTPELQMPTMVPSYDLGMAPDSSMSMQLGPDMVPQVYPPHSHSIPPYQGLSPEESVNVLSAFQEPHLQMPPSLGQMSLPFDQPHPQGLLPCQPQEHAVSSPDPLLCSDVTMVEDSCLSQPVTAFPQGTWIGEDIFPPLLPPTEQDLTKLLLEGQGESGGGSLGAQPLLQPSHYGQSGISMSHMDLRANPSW
Assay: MSD-pSTAT-PBMC Assay (pSTAT6, IL-4 stimulated)
Assay type: cell-based
Conditions: STAT6, PBMC, compound 3 hrs, then 1 ng/mL IL-4 for 10 min; Table 115
Method: Cryopreserved Peripheral Blood Mononuclear Cells (PBMC) are from AllCells. Recombinant Human IL-4 and IL-6 are from Peprotech. […] Cyropreserved PBMCs were thawed out and allowed to recover overnight in IMDM+10% heat-inactivated FBS prior to plating 50,000 (STAT3) or 25,000 (STAT6) cells per well in 96-well U-bottom tissue culture plates. […] Assay plates were then washed and 150 μL of 1× Read Buffer-T (MSD) was added to each well prior to reading on an SQ120 MSD Plate Reader. […]

Q: Record request: IC50 value, item CCCOC(=O)[C@H](COC)NP(=O)(Oc1ccccc1)[C@@H](F)c1ccc2sc(C(=O)N[C@H]3CCCC[C@H]4CC[C@@H](C(=O)N5C[C@@H](c6cccnc6)CC56CC6)N4C3=O)cc2c1 (stereo partly shown) [Compound 384]
A: < 100 nM

Q: Record request: IC50 value, item CCCOC(=O)[C@H](C)NP(=O)(Oc1ccccc1)[C@@H](F)c1ccc2sc(C(=O)N[C@H]3CCCC[C@H]4CC[C@@H](C(=O)N5C[C@@H](C#N)[C@H](c6ccccc6)C5)N4C3=O)cc2c1 (single isomer, unassigned) [Compound 343]
A: < 100 nM

Q: Record request: IC50 value, item CCCOC(=O)[C@H](C)NP(=O)(Oc1ccccc1)C(F)c1ccc2ccc(C(=O)N[C@H]3CCCC[C@H]4CC[C@@H](C(=O)N5CCC(c6ccn(C)c(=O)c6)C5)N4C3=O)cc2c1 (stereo partly shown) [Compound 450]
A: 100 to 1000 nM

Q: Record request: IC50 value, item CCCOC(=O)[C@H](C)NP(=O)(Oc1ccccc1)[C@@H](F)c1ccc2sc(C(=O)N[C@H]3CCCC[C@H]4CC[C@@H](C(=O)N5C[C@H](c6cncc(OC)c6)[C@@H](C#N)C56CC6)N4C3=O)cc2c1 (single isomer, unassigned) [Compound 372]
A: > 3000 nM
